- testProtocol: Sedimentation equilibrium analytical ultracentrifugation (AUC)
- Type: physicochemical
- experimentalContext: 55 μM each, PBS, 20 °C, 44–60 krpm, single ideal species, 280 nm (235 nm for CC-Di-KE); performed once; 99% confidence limits in separate column
Flag rule - MWAUC (Table S3) less than 3000 Da flags true (1); the remaining entries get false (0).

substance: Ac-G KIAALKQ KNAALKY EIAALEQ ENAALEQ G-NH2 (Ac-GKIAALKQKNAALKYEIAALEQENAALEQG-NH2) [CC-Di-KE, charge-neutral coiled-coil peptide, partner of CC-Di-EK]
class: false (0)
--
substance: Ac-G EIAALEQ KNAALKW KIAALKQ G-NH2 (Ac-GEIAALEQKNAALKWKIAALKQG-NH2) [CC-Di-EN3, 3-heptad coiled-coil peptide]
class: true (1)
--
substance: Ac-G EIAALEQ ENAALEQ KIAALKW KNAALKQ G-NH2 (Ac-GEIAALEQENAALEQKIAALKWKNAALKQG-NH2) [CC-Di-EK, charge-neutral coiled-coil peptide, four heptads, asparagines at two a sites]
class: false (0)

Next, consider the following substance.
**Query** Strictly below 3000 Da: is that where MWAUC (Table S3) of Ac-G EIAALEQ EIAALEQ KNAALKW KIAALKQ G-NH2 (Ac-GEIAALEQEIAALEQKNAALKWKIAALKQG-NH2) [CC-Di-EN4, 4-heptad coiled-coil peptide withone asparagine] sits?
**Result** false (0)
